target: T1, HLA-A*0201 HLA class I MHC monomer (iTopia Epitope Discovery System, coated on plate) (human); experiment: iTopia EDS affinity assay; peptide titration, printed as Affinity (ED50)
T1 construct: Placeholder peptide stripped; also called HLA-A2; MHC class I monomer
pEC50: −log10 of the molar value.
reported.property: pEC50

1. LLASFTGRC (Synthetic nonapeptide of human nectin4; the range counts on nectin4; also called Pep N° 21) [Nectin4 peptide 21 (LLASFTGRC)] | 6.22
2. ALLFCLLVV (Synthetic nonapeptide of human nectin4; the range counts on nectin4) [Nectin4 peptide 358 (ALLFCLLVV)] | 6.70
3. GVIAALLFC (Synthetic nonapeptide of human nectin4; the range counts on nectin4) [Nectin4 peptide 354 (GVIAALLFC)] | 7.05
4. AVTSEFHLV (Synthetic nonapeptide of human nectin4; the range counts on nectin4) [Nectin4 peptide 203 (AVTSEFHLV)] | 6.40
